The measurements presented in this section are drawn from ChEMBL document CHEMBL3045245.

Tested on: MCF7
Experiment: Cytotoxicity against Homo sapiens (human) MCF7 cells assessed as cell viability at 3.125 ug/ml after 48 hr by MTT assay
Type: functional
Conditions: MCF7, 48 h, read-out: Activity
Mark True only when viability at 3.125 µg/mL stays strictly below 60%. Values equal to the cut-off are False.

A selection of reference data follows.
compound="N#CC1=C(N)Oc2c(ccc3ccc(/C=C/c4ccc(F)cc4)nc23)C1c1ccc(Cl)cc1 (stereo not drawn)" discrete_label=False
compound="CCOC(=O)C1=C(N)Oc2c(ccc3ccc(/C=C/c4ccc(Br)cc4)nc23)C1c1ccc(Br)cc1 (stereo not drawn)" discrete_label=True
compound="N#CC1=C(N)Oc2c(ccc3ccc(/C=C/c4ccc(F)cc4)nc23)C1c1ccc(Br)cc1 (stereo not drawn)" discrete_label=False

Qu. Does the reported viability at 3.125 µg/mL of N#CC1=C(N)Oc2c(ccc3ccc(/C=C/c4ccc(Br)cc4)nc23)C1c1ccc(Br)cc1 (stereo not drawn) stay below 60%?
Ans. True

Qu. For CCOC(=O)C1=C(N)Oc2c(ccc3ccc(/C=C/c4ccc(Br)cc4)nc23)C1c1ccc(Cl)cc1 (stereo not drawn) , is the recorded viability at 3.125 µg/mL below the cut-off of 60%?
Ans. True

Qu. Confirm or reject: viability at 3.125 µg/mL of N#CC1=C(N)Oc2c(ccc3ccc(/C=C/c4ccc(Cl)cc4)nc23)C1c1ccc(Cl)cc1 (stereo not drawn) lies strictly below 60%
Ans. False

Qu. Problem: For the compound CCOC(=O)C1=C(N)Oc2c(ccc3ccc(/C=C/c4ccc(Cl)cc4)nc23)C1c1ccc(Cl)cc1 (stereo not drawn) , is viability at 3.125 µg/mL under 60%?
Ans. False

Qu. Record CCOC(=O)C1=C(N)Oc2c(ccc3ccc(/C=C/c4ccc(F)cc4)nc23)C1c1ccc(Br)cc1 (stereo not drawn) : is its viability at 3.125 µg/mL strictly below 60%?
Ans. False

###

Entries and their viability at 1.56 µg/mL
System: MCF7
Assay: Cytotoxicity against Homo sapiens (human) MCF7 cells assessed as cell viability at 1.56 ug/ml after 48 hr by MTT assay
Format: functional
Settings: MCF7, 48 h, read-out: Activity
Numeric only. Scale: %

Answered cases to consult:
compound="CCOC(=O)C1=C(N)Oc2c(ccc3ccc(/C=C/c4ccc(F)cc4)nc23)C1c1ccc(Cl)cc1 (configuration not stated)" system=MCF7 readout_type="viability at 1.56 µg/mL" readout_number=98.5
compound="CCOC(=O)C1=C(N)Oc2c(ccc3ccc(/C=C/c4ccc(Br)cc4)nc23)C1c1ccc(Cl)cc1 (configuration not stated)" system=MCF7 readout_type="viability at 1.56 µg/mL" readout_number=69.4
compound="CC[C@]1(O)C[C@@H]2CN(CCc3c([nH]c4ccccc34)[C@@](C(=O)OC)(c3cc4c(cc3OC)N(C)[C@H]3[C@@](O)(C(=O)OC)[C@H](OC(C)=O)[C@]5(CC)C=CCN6CC[C@]43[C@@H]65)C2)C1 [VINBLASTINE]" system=MCF7 readout_type="viability at 1.56 µg/mL" readout_number=76.2
compound="CCOC(=O)C1=C(N)Oc2c(ccc3ccc(/C=C/c4ccc(Br)cc4)nc23)C1c1ccc(Br)cc1 (configuration not stated)" system=MCF7 readout_type="viability at 1.56 µg/mL" readout_number=62.3
compound="CCOC(=O)C1=C(N)Oc2c(ccc3ccc(/C=C/c4ccc(Cl)cc4)nc23)C1c1ccc(Cl)cc1 (configuration not stated)" system=MCF7 readout_type="viability at 1.56 µg/mL" readout_number=78.1
compound="N#CC1=C(N)Oc2c(ccc3ccc(/C=C/c4ccc(F)cc4)nc23)C1c1ccc(Cl)cc1 (configuration not stated)" system=MCF7 readout_type="viability at 1.56 µg/mL" readout_number=99.3

Let us move to another entry and its viability at 1.56 µg/mL.
Qu. Answer with the recorded viability at 1.56 µg/mL of N#CC1=C(N)Oc2c(ccc3ccc(/C=C/c4ccc(Br)cc4)nc23)C1c1ccc(Cl)cc1 (configuration not stated) only.
Ans. 80.6

###

Experiment: Cytotoxicity against Homo sapiens (human) HCT cells after 48 hr by MTT assay
Assay type: functional, cell-based
Reported IC50 values for a set of molecules
API: value field is a number in µg/mL; no unit string.

Qu. Entry N#CC1=C(N)Oc2c(ccc3ccc(/C=C/c4ccc(Br)cc4)nc23)C1c1ccc(Cl)cc1 (configuration not stated) needs its IC50 filled in; supply it.
Ans. 10.2

Qu. Output IC50 of CCOC(=O)C1=C(N)Oc2c(ccc3ccc(/C=C/c4ccc(F)cc4)nc23)C1c1ccc(Cl)cc1 (configuration not stated)
Ans. 26.2

Qu. Let me know recorded IC50 for `CC[C@]1(O)C[C@@H]2CN(CCc3c([nH]c4ccccc34)[C@@](C(=O)OC)(c3cc4c(cc3OC)N(C)[C@H]3[C@@](O)(C(=O)OC)[C@H](OC(C)=O)[C@]5(CC)C=CCN6CC[C@]43[C@@H]65)C2)C1` , thanks.
Ans. 2.6

Qu. Item CCOC(=O)C1=C(N)Oc2c(ccc3ccc(/C=C/c4ccc(Cl)cc4)nc23)C1c1ccc(Br)cc1 (configuration not stated) : provide IC50
Ans. 20.4

Qu. For CCOC(=O)C1=C(N)Oc2c(ccc3ccc(/C=C/c4ccc(F)cc4)nc23)C1c1ccc(Br)cc1 (configuration not stated) , write its IC50.
Ans. 26.1

Qu. Please supply the value of reported IC50 for the item CCOC(=O)C1=C(N)Oc2c(ccc3ccc(/C=C/c4ccc(Cl)cc4)nc23)C1c1ccc(Cl)cc1 (configuration not stated)
Ans. 13

###

Test: Cytotoxicity against Homo sapiens (human) HCT cells after 48 hr by MTT assay
Format: functional, cell-based
Readout Type: IC50
Note: a bare number is incomplete; add the unit.

Past entries and their recorded results:
compound="N#CC1=C(N)Oc2c(ccc3ccc(/C=C/c4ccc(Cl)cc4)nc23)C1c1ccc(Br)cc1 (stereo unspecified)" result="11.9 µg/mL"
compound="N#CC1=C(N)Oc2c(ccc3ccc(/C=C/c4ccc(F)cc4)nc23)C1c1ccc(Cl)cc1 (stereo unspecified)" result="43.8 µg/mL"

Qu. Quote IC50 reported for CCOC(=O)C1=C(N)Oc2c(ccc3ccc(/C=C/c4ccc(Br)cc4)nc23)C1c1ccc(Br)cc1 (stereo unspecified) please.
Ans. 12.8 µg/mL

Qu. Indicate its recorded IC50; the compound in question is N#CC1=C(N)Oc2c(ccc3ccc(/C=C/c4ccc(Cl)cc4)nc23)C1c1ccc(Cl)cc1 (stereo unspecified)
Ans. 4.8 µg/mL

Qu. Using known records, supply IC50 for CCOC(=O)C1=C(N)Oc2c(ccc3ccc(/C=C/c4ccc(Br)cc4)nc23)C1c1ccc(Cl)cc1 (stereo unspecified)
Ans. 6.1 µg/mL

Qu. Could you please provide reported IC50 for N#CC1=C(N)Oc2c(ccc3ccc(/C=C/c4ccc(Br)cc4)nc23)C1c1ccc(Br)cc1 (stereo unspecified) ? Thanks!
Ans. 12.7 µg/mL

###

System: MCF7
Assay: Cytotoxicity against Homo sapiens (human) MCF7 cells after 48 hr by MTT assay
Assay type: functional, cell-based
Conditions: MCF7, 48 h
Readout Type: IC50 (µg/mL)
Kindly provide the numeric value in µg/mL only, without the unit symbol.

Consider the worked cases shown below.
molecule=CC[C@]1(O)C[C@@H]2CN(CCc3c([nH]c4ccccc34)[C@@](C(=O)OC)(c3cc4c(cc3OC)N(C)[C@H]3[C@@](O)(C(=O)OC)[C@H](OC(C)=O)[C@]5(CC)C=CCN6CC[C@]43[C@@H]65)C2)C1 readout_type=IC50 readout_number=6.1
molecule="N#CC1=C(N)Oc2c(ccc3ccc(/C=C/c4ccc(Cl)cc4)nc23)C1c1ccc(Br)cc1 (configuration not stated)" readout_type=IC50 readout_number=12.5
molecule="CCOC(=O)C1=C(N)Oc2c(ccc3ccc(/C=C/c4ccc(F)cc4)nc23)C1c1ccc(Cl)cc1 (configuration not stated)" readout_type=IC50 readout_number=37.9
molecule="N#CC1=C(N)Oc2c(ccc3ccc(/C=C/c4ccc(Br)cc4)nc23)C1c1ccc(Cl)cc1 (configuration not stated)" readout_type=IC50 readout_number=15.9
molecule="N#CC1=C(N)Oc2c(ccc3ccc(/C=C/c4ccc(F)cc4)nc23)C1c1ccc(Br)cc1 (configuration not stated)" readout_type=IC50 readout_number=42.5
molecule="CCOC(=O)C1=C(N)Oc2c(ccc3ccc(/C=C/c4ccc(Br)cc4)nc23)C1c1ccc(Br)cc1 (configuration not stated)" readout_type=IC50 readout_number=2.4

In the following, a different molecule is considered.
Qu. For N#CC1=C(N)Oc2c(ccc3ccc(/C=C/c4ccc(F)cc4)nc23)C1c1ccc(Cl)cc1 (configuration not stated) , write its IC50.
Ans. 38.6

###

Listing: IC50 of selected molecules
Tested on: HepG2
Test: Cytotoxicity against Homo sapiens (human) HepG2 cells after 48 hr by MTT assay
Type: functional, cell-based
Settings: HepG2, 48 h
Express the result in µg/mL but write the number alone.

molecule="N#CC1=C(N)Oc2c(ccc3ccc(/C=C/c4ccc(Cl)cc4)nc23)C1c1ccc(Cl)cc1 (stereo unspecified)" value_units=µg/mL readout_number=48.2
molecule="N#CC1=C(N)Oc2c(ccc3ccc(/C=C/c4ccc(Br)cc4)nc23)C1c1ccc(Br)cc1 (stereo unspecified)" value_units=µg/mL readout_number=8.7

Qu. Please give measured IC50 of the following entry: N#CC1=C(N)Oc2c(ccc3ccc(/C=C/c4ccc(Br)cc4)nc23)C1c1ccc(Cl)cc1 (stereo unspecified)
Ans. 7.5

Qu. Respond only with IC50 recorded for CCOC(=O)C1=C(N)Oc2c(ccc3ccc(/C=C/c4ccc(Br)cc4)nc23)C1c1ccc(Br)cc1 (stereo unspecified)
Ans. 6.1
